Data credit: PubChem BioAssay AID1159580

// reported normalized growth per item
Assay: chemical genetic growth profiling, strain panel (AID 1159580);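 also: tested at 20 µM; growth read once vehicle control cultures reached saturation at 30 °C; 1 = growth at the plate median or of vehicle wells; lower values mean less growth of the strain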
Settings: S. cerevisiae deletion strains, growth OD, locus YPL153C, strain RAD53, hits give low values
The campaign covered roughly 5,500 compounds. About 2,000 (36%) were called active. Another 18% or so got no clear call; they are omitted. Some of the results follow.

- compound: "COC(=O)c1sccc1-c1ccc(/C=C/[N+](=O)[O-])o1"
  normalized growth: 0.0913
- compound: "O=C(Nc1ccc(OC(F)(F)F)cc1)N1CCN(c2nc(-c3ccccc3)ns2)CC1"
  normalized growth: 0.909
- compound: "CC1(C)OC(=O)C(=Cc2cccn2-c2ccc(C(F)(F)F)cc2)C(=O)O1"
  normalized growth: 0.901
- compound: "CC(C)(C)c1ccc(C(=O)NNc2c(Cl)cccc2Cl)cc1"
  normalized growth: 0.92
- compound: "ClC1=C(C=Nc2ccc(Cl)cc2)CSc2ccc(Cl)cc21"
  normalized growth: 0.904
- compound: "CC1(C)OC(=O)C(=Cc2cccn2-c2ccc(OC(F)(F)F)cc2)C(=O)O1"
  normalized growth: 0.916
- compound: "O=C(Nc1ccc(Cl)cc1)OCCSc1nc2ccccc2s1"
  normalized growth: 0.95
- compound: "O=[N+]([O-])c1ccc(Sc2ssc(=S)c2-c2ccccc2)nc1"
  normalized growth: 0.537
- compound: "O=[N+]([O-])c1ccc2oc(C(O)c3cccc(Cl)c3)cc2c1 (stereo unspecified)"
  normalized growth: 0.955
- compound: "CCc1ccn2cc(Nc3ccccc3Cl)nc2c1"
  normalized growth: 0.912
- compound: "Cc1c(-c2ccnn2C(=O)c2ccco2)cnn1-c1ccccc1"
  normalized growth: 0.873
- compound: "CC(=O)ON=C1c2cc([N+](=O)[O-])ccc2-c2ccc([N+](=O)[O-])cc21"
  normalized growth: 0.724
- compound: "Cc1c(C(=S)Nc2ccccc2)sc2ccccc12"
  normalized growth: 0.847
- compound: "Cc1c(C(=O)N(Cc2ccccc2)Cc2cccs2)cnn1-c1ccc(Cl)cc1"
  normalized growth: 0.926
- compound: "CCCCCCCCCCCC(=O)NOC(=O)c1c(-c2c(Cl)cccc2Cl)noc1C"
  normalized growth: 0.533
- compound: "Cc1onc(-c2c(Cl)cccc2Cl)c1C(=O)NNc1c(Cl)cccc1Cl"
  normalized growth: 0.921
- compound: "FC(F)(F)c1cccc(-n2c(CSCc3cccc4ccccc34)n[nH]c2=S)c1"
  normalized growth: 0.962
- compound: "N#CC(C#N)=Cc1ccc(-c2ccccc2C(F)(F)F)o1"
  normalized growth: 0.907
- compound: "Cc1onc(-c2c(Cl)cccc2Cl)c1C(=O)NC(C)(C)CC(C)(C)C"
  normalized growth: 0.964
- compound: "S=c1[nH]nc(Nc2ccc(I)cc2)s1"
  normalized growth: 0.512
- compound: "Cc1onc(-c2c(F)cccc2Cl)c1C(=O)NNc1cc(Cl)cc(Cl)c1"
  normalized growth: 0.928

###

Assay: chemical genetic growth profiling, strain panel (AID 1159580);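 also: tested at 20 µM; growth read once vehicle control cultures reached saturation at 30 °C; 1 = growth at the plate median or of vehicle wells; lower values mean less growth of the strain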
Conditions: S. cerevisiae deletion strains, growth OD, locus YGR078C, strain PAC10, hits give low values
Hit rate of the full screen: of about 5,500 compounds, about 2,000 (36%) were called active. About 18% were inconclusive and are not listed. The list shows a part of the results.

- compound: "COC(=O)C(C)c1ccc(C(=O)c2cccs2)cc1 (stereo not given)"
  normalized growth: "0.995 (inactive)"
- compound: "CCCCN1CCCCC1C(=O)Nc1c(C)cccc1C (stereo not given)"
  normalized growth: "1.01 (inactive)"
- compound: "CO/N=C(/C(=O)N[C@@H]1C(=O)N2C(C(=O)O)=C(CSc3nc(=O)c(O)nn3C)CSC12)c1csc(N)n1 (stereo not given in full)"
  normalized growth: "1.01 (inactive)"
- compound: "N#C/C(=C\\c1ccc(Oc2ccccc2)nc1)S(=O)(=O)c1ccccc1"
  normalized growth: "1 (inactive)"
- compound: "CC(/C=C/c1cccc(Oc2ccc(F)cc2)c1)N(O)C(N)=O (stereo not given)"
  normalized growth: "1.01 (inactive)"
- compound: "O=S1OCC2C(CO1)C1(Cl)C(Cl)=C(Cl)C2(Cl)C1(Cl)Cl (stereo not given)"
  normalized growth: "0.97 (inactive)"
- compound: "CCC(C)c1cnc(CC(C)C)c(=O)n1O (stereo not given)"
  normalized growth: "0.905 (inactive)"
- compound: "CSC(=NC#N)N1CCN(c2ccc([N+](=O)[O-])cn2)CC1"
  normalized growth: "0.996 (inactive)"
- compound: "C[C@@H]1C(=O)OC2[C@H](O)C34[C@@H]5OC(=O)[C@@]3(O[C@@H]3OC(=O)[C@H](O)[C@@]34[C@H](C(C)(C)C)[C@H]5O)[C@]21O (stereo not given in full)"
  normalized growth: "1 (inactive)"
- compound: "N#Cc1c(F)cccc1Oc1ccc(F)cc1"
  normalized growth: "0.971 (inactive)"
